Biological target: hMAP4K2 (Homo sapiens)
Sequence (Q12851 1-820): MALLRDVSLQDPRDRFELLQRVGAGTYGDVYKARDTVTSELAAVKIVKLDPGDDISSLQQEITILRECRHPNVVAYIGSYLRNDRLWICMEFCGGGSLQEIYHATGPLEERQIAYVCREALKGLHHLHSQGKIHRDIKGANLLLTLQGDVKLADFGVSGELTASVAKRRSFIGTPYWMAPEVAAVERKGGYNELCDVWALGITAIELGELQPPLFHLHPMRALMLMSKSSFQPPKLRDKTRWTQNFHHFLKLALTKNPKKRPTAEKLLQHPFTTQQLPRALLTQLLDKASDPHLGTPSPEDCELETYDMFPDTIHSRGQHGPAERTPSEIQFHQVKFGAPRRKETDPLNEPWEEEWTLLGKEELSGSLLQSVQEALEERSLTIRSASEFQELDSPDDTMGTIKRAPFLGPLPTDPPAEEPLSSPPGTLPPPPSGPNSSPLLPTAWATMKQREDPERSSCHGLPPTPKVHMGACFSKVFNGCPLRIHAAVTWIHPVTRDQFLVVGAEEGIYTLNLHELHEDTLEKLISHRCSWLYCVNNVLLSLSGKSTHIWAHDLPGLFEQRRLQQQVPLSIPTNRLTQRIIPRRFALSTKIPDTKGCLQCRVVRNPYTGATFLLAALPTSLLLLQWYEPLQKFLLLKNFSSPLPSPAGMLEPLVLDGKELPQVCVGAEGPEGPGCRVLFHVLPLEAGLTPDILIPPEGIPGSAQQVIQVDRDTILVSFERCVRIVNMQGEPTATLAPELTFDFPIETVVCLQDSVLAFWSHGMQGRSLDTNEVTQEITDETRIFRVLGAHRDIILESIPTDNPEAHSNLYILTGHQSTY

>  <Compound>
Cc1cn(CCN2CCN(c3ccccc3-c3cc(C#N)cc(C(=O)NCCCN4CCCC4)c3)CC2)c2ccccc12 [LLY-507]

>  <IC50>
> 20 µM

$$$$

----------
Target: hCDKL3 (Homo sapiens)
Sequence (Q8IVW4 whole entry): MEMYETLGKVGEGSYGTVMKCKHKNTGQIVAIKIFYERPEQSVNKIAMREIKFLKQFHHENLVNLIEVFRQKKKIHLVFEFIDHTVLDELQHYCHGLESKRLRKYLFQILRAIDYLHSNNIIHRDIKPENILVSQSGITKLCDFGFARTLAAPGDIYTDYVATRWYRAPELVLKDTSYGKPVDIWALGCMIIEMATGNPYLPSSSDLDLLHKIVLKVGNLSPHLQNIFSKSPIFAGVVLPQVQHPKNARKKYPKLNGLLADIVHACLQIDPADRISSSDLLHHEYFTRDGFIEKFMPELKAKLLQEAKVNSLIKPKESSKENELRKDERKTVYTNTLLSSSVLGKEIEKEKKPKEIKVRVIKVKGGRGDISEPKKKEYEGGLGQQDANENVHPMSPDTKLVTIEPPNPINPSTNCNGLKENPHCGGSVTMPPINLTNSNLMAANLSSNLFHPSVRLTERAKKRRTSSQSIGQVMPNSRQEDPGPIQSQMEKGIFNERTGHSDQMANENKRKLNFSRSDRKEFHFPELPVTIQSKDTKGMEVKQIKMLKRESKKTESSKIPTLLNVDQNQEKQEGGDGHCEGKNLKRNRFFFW
Value Kind: IC50

>  <Chemical Structure>
Cc1cn(CCN2CCN(c3ccccc3-c3cc(C#N)cc(C(=O)NCCCN4CCCC4)c3)CC2)c2ccccc12

>  <Observed Result>
> 20 µM

$$$$

----------
Biological target: hRSK1(Kin.Dom.1-N-term) (Homo sapiens)
Sequence (Q15418 62-321 limits assumed): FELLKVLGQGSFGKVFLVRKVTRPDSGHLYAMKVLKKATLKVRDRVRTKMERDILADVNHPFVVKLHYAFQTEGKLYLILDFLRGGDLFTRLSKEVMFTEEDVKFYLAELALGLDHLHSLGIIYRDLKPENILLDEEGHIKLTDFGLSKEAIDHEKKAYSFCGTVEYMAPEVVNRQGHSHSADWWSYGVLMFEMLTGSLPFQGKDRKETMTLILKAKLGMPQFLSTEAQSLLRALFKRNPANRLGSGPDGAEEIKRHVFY

>  <Compound>
Cc1cn(CCN2CCN(c3ccccc3-c3cc(C#N)cc(C(=O)NCCCN4CCCC4)c3)CC2)c2ccccc12 [LLY-507]

>  <Experimental System>
hRSK1(Kin.Dom.1-N-term) (Homo sapiens)

>  <IC50>
> 20 µM

$$$$

----------
Protein target, amino acids: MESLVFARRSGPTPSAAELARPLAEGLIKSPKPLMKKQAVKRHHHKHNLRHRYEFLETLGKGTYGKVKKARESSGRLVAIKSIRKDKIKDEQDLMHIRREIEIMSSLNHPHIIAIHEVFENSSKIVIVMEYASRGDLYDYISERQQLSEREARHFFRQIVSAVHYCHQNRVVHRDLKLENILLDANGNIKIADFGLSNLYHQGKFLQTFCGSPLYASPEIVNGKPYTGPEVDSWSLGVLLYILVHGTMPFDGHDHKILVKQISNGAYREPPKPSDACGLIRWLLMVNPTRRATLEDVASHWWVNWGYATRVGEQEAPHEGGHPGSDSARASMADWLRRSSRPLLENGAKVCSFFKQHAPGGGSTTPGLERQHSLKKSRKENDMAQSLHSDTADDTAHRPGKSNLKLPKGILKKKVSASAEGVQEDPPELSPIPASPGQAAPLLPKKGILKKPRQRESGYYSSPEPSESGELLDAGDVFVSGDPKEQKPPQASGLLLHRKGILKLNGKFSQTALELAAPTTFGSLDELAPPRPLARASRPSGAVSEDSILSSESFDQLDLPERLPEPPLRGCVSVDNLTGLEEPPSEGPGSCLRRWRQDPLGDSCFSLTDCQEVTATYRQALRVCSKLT
pIC50: −log10 of the molar value.

>  <Chemical Structure>
Cc1cn(CCN2CCN(c3ccccc3-c3cc(C#N)cc(C(=O)NCCCN4CCCC4)c3)CC2)c2ccccc12

>  <pIC50>
< 4.70

$$$$
